- test.name: NCI Yeast Anticancer Drug Screen. Data for the mec2-1 strain (AID 157)
- measurement.parameters: S. cerevisiae mec2-1 strain, at 50.0 µM
Compounds without any hit were thinned out: in the full panel of roughly 79,000, 15% have a hit. Activity calls are given as the source filed them. No stated cut-off is given here; in the data, active means growth inhibition above about 70%; inactive means the rest.
Pick one and only one: active, inactive

Please review the entries below; each comes with its answer.
molecule	class.name
OCC1OC(OC2CCCCC2)C(O)C(O)C1O (stereo not drawn)	inactive
CC(C)CNC(=S)N/N=C/c1ccc(C(C)C)cc1	inactive
CCc1n[nH]c(=O)n1N1C(=O)C2CCCCC2C1=O (stereo not drawn)	inactive
Cc1ccc([N+](=O)[O-])cc1S(=O)(=O)O	inactive
COc1ccc(-c2csc(N)n2)cc1OC	inactive
NC(=S)NO	inactive
CCOC(=O)C(c1ccccc1)N(CCCN(CC)CC)c1ccccc1 (stereo not drawn)	inactive
O=C1CCCC1C(=O)c1ccccc1.O=C1CCCC1C(=O)c1ccccc1.[Cu] (stereo not drawn)	inactive
O=C1CSCCO1	inactive
CCS(=O)CCO (stereo not drawn)	inactive

Data request: What classification did CCCCOP(=O)(Cc1ccc(Cl)cc1Cl)OCCCC end up with in this test?
Data returned: active

Data request: What classification did CC1OC(=O)/C(=C\N(C)C)C1=O (stereo not drawn) end up with in this test?
Data returned: inactive

Data request: What classification did Cc1nc(N)[nH]c(=O)c1-n1nnc2ccccc2c1=O end up with in this test?
Data returned: inactive

Data request: What classification did CC(=O)OCC(=O)[C@@]1(O)CC[C@H]2[C@@H]3CCC4=CC(=O)CC[C@]4(C)[C@H]3[C@@H](O)C[C@@]21C end up with in this test?
Data returned: inactive

---

- test.name: NCI Yeast Anticancer Drug Screen. Data for the sgs1 mgt1 strain (AID 161);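 further: 0% = growth of cultures given vehicle only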
- measurement.parameters: S. cerevisiae sgs1 mgt1 strain, at 50.0 µM, hits give high values
This is part of a sample that, as a whole, favours compounds with a hit. Of some 79,000 tested, about 15% had one in any assay. Where a SMILES comes first, the peptide text is derived from it. [ ]: non-standard residue; d: D form. The star is where a group is joined. Nle = CCCC[CH](N)C(=O)O; Cbz = O=C(OCc1ccccc1)*
# key: entry, value: growth inhibition
All answers are understood in %, so give the number only.

compound	growth inhibition, %
CC1c2ccccc2Cn2cc3c(c21)C(=O)c1cccc(OP(=O)(O)OCc2ccccc2)c1C3=O (stereo not drawn)	13.1
COc1ccc([N+](=O)[O-])cc1N=NN(C)C	-10.8
O=C(Nc1ccc(Cl)cc1)OC(C(=O)c1ccccn1)c1ccccn1 (stereo not drawn)	-17.6
O=C(Nc1ccc(Cl)cc1[N+](=O)[O-])Oc1ccc(-c2ccccc2)cc1	48.1
Oc1c(Cl)cc(Cl)cc1C=Nc1ccc2c(ccc3c4ccccc4ccc23)c1	-2.4

Data request: Which value of growth inhibition has been reported for O=Cc1cc(N=Nc2ccc(S(=O)(=O)O)cc2)ccc1O in the records?
Data returned: -1.45

Data request: Which value of growth inhibition has been reported for CCc1nc(N)nc(N)c1-c1ccc(NC(C)c2ccccc2)c([N+](=O)[O-])c1 (stereo not drawn) in the records?
Data returned: 14.5

Data request: Which value of growth inhibition has been reported for CCCCCCCCCCCCCCCCOP(=O)(O)OP(=O)(O)OCC1OC(n2ccc(N)nc2=O)CC1O (stereo not drawn) in the records?
Data returned: 8.7

Data request: Which value of growth inhibition has been reported for ClC1(Cl)C2CCOC21n1cnc2ccccc21 (stereo not drawn) in the records?
Data returned: -8.3

Data request: Which value of growth inhibition has been reported for CC1C(=O)OC2CC[N+]3(C(=O)C(F)(F)F)CC4OC4(COC(=O)C(C)(O)C1(C)O)C23 (stereo not drawn) in the records?
Data returned: -12.8

Data request: Which value of growth inhibition has been reported for CCCCC(NC(=O)C(Cc1ccccc1)NC(=O)OCc1ccccc1)C(=O)O (stereo not drawn) (Cbz-Phe-[Nle]-OH; configuration not given here) in the records?
Data returned: -4.3

Data request: Which value of growth inhibition has been reported for COc1ccc2c(C)cc(N/N=C(\C)c3cn(C)n(-c4ccccc4)c3=O)nc2c1 in the records?
Data returned: -5.95

Data request: Which value of growth inhibition has been reported for Oc1c(Cl)cc(Cl)cc1C=Nc1cc(C(F)(F)F)ccc1N1CCc2ccccc2C1 in the records?
Data returned: 50

Hello, the source for this data is PubChem BioAssay (NCI), in case you need it.
